assayTarget: DLG4_1, P78352
Sequence (P78352 62-152): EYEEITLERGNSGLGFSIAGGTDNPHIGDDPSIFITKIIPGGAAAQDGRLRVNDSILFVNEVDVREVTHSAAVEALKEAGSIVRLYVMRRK
testProtocol: holdup assay
Set-up: key: below the threshold = too weak to quantify, mostly under pKd 3.1 to 4
experimentalParameters: plain residues with an end cap or a label only (N-terminal biotin on a linker: ado-ado)

- binder: "QSPANIYYKV [EFNB1, P52799]"
  pKd: "below the threshold"
- binder: "GQEEQVTTRL [TRPC5, Q9UL62]"
  pKd: "below the threshold"
- binder: "QKNRKAQEDL [CES3, Q6UWW8]"
  pKd: "below the threshold"
- binder: "TPPAAKKSRI [BAZ1A, Q9NRL2]"
  pKd: "below the threshold"
- binder: "NHSSSPETTA [TRMT13, Q9NUP7]"
  pKd: "below the threshold"
- binder: "VYPNAKVELV [PDLIM4_iso2, P50479;P50479-1]"
  pKd: "below the threshold"
- binder: "GSGAVEMESV [AQP6, Q13520]"
  pKd: "below the threshold"
- binder: "EVNETDDTKM [KCNJ1, P48048]"
  pKd: "below the threshold"
- binder: "CLREWCDAFL [BANF1, O75531]"
  pKd: "below the threshold"
- binder: "GNSVLKSTQF [SLC22A12, Q96S37]"
  pKd: "below the threshold"
- binder: "LKVPPEERLI [CRB2, Q5IJ48]"
  pKd: "below the threshold"
- binder: "PLSPEQPTKL [TRIM50, Q86XT4]"
  pKd: "below the threshold"
- binder: "TASPAKETSF [SLC2A7, Q6PXP3]"
  pKd: "below the threshold"
- binder: "QGLAERISVL [PRKD2, Q9BZL6]"
  pKd: "below the threshold"
- binder: "SKSNFGSEPL [KIF17, Q9P2E2]"
  pKd: "below the threshold"
- binder: "TSQESEDTYL [TBC1D10A, Q9BXI6]"
  pKd: "below the threshold"
- binder: "LPHPHSTTRV [NLGN2, Q8NFZ4]"
  pKd: "below the threshold"
- binder: "YRLAQESGLV [ABCC6, O95255]"
  pKd: "below the threshold"
- binder: "QSLNRMEYIV [JAG1, P78504]"
  pKd: "below the threshold"
